// data source = patent US9079905B2

MEASUREMENT_TARGET: human PDE9A2 (Homo sapiens)
Construct: crude lysate used as enzyme source)
Sequence (O76083 1-533 isoform O76083-2): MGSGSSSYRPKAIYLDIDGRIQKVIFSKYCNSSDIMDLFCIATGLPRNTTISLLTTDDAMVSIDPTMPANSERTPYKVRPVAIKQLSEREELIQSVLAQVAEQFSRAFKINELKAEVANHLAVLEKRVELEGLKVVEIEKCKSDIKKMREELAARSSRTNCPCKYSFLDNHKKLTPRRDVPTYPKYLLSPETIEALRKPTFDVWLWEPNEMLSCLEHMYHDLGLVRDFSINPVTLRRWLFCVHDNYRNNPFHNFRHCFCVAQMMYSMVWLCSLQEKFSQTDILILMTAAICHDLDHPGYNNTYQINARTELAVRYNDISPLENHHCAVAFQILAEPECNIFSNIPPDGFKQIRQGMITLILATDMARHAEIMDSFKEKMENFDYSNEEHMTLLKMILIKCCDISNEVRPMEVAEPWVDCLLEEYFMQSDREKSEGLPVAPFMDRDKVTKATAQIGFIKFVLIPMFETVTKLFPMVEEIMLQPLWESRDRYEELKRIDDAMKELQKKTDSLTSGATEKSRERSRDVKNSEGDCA
PROTOCOL_DESCRIPTION: PDE9A2 enzymatic activity assay (scintillation proximity assay)
ASSAY_CONTEXT: specific IC50 value is within the given range
pIC50: −log10 of the molar value.
ENDPOINT: pIC50

* O=C(NC1CCCC(n2ncc3c(=O)[nH]c(Cc4ccccc4OC(F)(F)F)nc32)C1)c1ccccc1 (mixture of isomers) | 5.82 to 7.00
* CC(Cc1nc2c(cnn2C2CCC(F)(F)CC2)c(=O)[nH]1)C(F)(F)F (single isomer, unassigned) [Example 48] | 5.82 to 7.00
* O=c1[nH]c(Cc2ccccc2Br)nc2c1cnn2C1CCC(F)(F)CC1 | 7.00 to 9.00
* O=c1[nH]c(CC2CCC2)nc2c1cnn2C1CCC(F)CC1 (stereo not drawn) | 7.00 to 9.00
* Cc1ccc(-c2ccccc2Cc2nc3c(cnn3C3CCC(F)(F)CC3)c(=O)[nH]2)o1 | 7.00 to 9.00
* CC1(C)CC(Cc2nc3c(cnn3C3CCC(F)(F)CC3)c(=O)[nH]2)CO1 (single isomer, unassigned) [Example 77] | 7.00 to 9.00
* O=c1[nH]c(C(F)c2ccccc2Br)nc2c1cnn2C1CCC(F)(F)CC1 (racemic) | 5.82 to 7.00
* COc1ccccc1Cc1nc2c(cnn2C2CCC(F)(F)CC2)c(=O)[nH]1 | 7.00 to 9.00
* O=C(O)Cc1ccccc1Cc1nc2c(cnn2C2CCC(F)(F)CC2)c(=O)[nH]1 | 5.82 to 7.00
